Test system: AD5 osteosarcoma (high ras)
Experiment: Effect of limonene on tumor cell proliferation, AD5
Format: cell-based
Experimental Context: Homo sapiens, 96 h; DMEM; three to four days of continuous treatment
Value Kind: pIC50
// pIC50 here means minus log10 of the molar concentration (mol/L)

Inquiry: Looking for the measured pIC50 of C=C(C)[C@H]1CC=C(C)CC1 , can you help?
Reply text: 2.32

* * *

System: U87 glioblastoma
Experiment: Effect of limonene on tumor cell proliferation, U87
Type: cell-based
Experimental Context: Homo sapiens, 96 h; RPMI 1640; three to four days of continuous treatment
Value Kind: pIC50
# pIC50: negative log10 of molar concentration; output just the value

Inquiry: Requested read-out: pIC50. Entry: C=C(C)[C@H]1CC=C(C)CC1
Reply text: 2.68
